targetOfAssay: SMARCA4 (Homo sapiens, UniProt P51532)
Construct: SMARCA2/SMARCA4 protein degradation selectivity in MV4-11 cells; endogenous in cells; host or cells: MV4-11
Sequence (P51532 whole entry): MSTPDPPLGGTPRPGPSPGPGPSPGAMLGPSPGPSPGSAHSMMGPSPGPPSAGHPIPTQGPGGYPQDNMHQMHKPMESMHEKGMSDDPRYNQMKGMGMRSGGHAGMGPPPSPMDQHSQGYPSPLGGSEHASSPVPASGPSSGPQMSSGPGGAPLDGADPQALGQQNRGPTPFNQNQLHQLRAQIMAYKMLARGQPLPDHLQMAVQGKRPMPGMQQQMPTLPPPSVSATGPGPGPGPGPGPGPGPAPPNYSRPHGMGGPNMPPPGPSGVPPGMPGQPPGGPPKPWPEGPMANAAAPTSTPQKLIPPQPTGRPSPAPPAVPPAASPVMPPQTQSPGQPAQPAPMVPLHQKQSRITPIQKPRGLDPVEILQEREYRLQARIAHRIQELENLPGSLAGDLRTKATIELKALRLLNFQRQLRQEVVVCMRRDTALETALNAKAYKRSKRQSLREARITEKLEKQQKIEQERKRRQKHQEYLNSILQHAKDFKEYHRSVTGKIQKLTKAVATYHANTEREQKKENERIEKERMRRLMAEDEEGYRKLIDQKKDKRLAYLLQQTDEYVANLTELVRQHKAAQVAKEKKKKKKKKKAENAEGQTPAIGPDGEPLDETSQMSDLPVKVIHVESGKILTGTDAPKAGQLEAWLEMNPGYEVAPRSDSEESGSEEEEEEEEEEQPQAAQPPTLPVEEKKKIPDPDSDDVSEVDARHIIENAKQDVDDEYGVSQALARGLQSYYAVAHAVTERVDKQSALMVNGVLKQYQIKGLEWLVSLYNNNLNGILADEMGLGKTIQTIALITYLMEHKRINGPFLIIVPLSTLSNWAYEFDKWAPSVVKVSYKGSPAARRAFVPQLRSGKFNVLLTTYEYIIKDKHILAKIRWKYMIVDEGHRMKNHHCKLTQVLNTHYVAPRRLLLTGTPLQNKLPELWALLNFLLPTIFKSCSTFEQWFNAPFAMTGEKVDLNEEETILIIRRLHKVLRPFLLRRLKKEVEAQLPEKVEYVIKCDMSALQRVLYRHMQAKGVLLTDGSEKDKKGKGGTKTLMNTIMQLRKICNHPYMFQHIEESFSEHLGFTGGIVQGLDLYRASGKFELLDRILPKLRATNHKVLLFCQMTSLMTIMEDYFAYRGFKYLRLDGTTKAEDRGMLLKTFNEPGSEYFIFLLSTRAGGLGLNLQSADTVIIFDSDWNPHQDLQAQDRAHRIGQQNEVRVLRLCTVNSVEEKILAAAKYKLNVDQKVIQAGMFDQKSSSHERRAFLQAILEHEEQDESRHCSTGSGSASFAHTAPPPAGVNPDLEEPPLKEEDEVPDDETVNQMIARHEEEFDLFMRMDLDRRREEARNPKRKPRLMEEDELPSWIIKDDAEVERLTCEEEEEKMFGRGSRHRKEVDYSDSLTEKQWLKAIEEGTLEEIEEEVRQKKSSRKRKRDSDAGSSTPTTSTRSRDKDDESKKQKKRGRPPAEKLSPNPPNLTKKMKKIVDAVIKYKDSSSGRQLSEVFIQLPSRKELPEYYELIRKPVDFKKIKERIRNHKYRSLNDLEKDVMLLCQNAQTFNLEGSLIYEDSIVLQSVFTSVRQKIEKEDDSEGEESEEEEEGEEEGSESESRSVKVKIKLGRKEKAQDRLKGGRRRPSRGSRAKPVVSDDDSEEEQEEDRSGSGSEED
assay: SMARCA4 Western blot degradation in MV4-11 cells
Type: cell-based
experimentalSetup: MV4-11 cells, 24 h; read-out: SMARCA4 MSD MV411 degradation 24 h: Mean external-Abs DC50
readoutName: DC50

{"columns": ["compound", "targetOfAssay", "recordedValue"],
 "data": [
  ["C#Cc1ccc(CNC(=O)[C@@H]2C[C@@H](O)CN2C(=O)[C@@H](NC(=O)N2CCN(CC3CCN(c4cnc(N5CCc6[nH]c7nnc(-c8ccccc8O)cc7c6[C@@H]5C)nc4)CC3)CC2)C(C)(C)C)cc1", "SMARCA4 (Homo sapiens, UniProt P51532)", "> 100 nM"],
  ["Cc1ncsc1-c1ccc(CNC(=O)[C@@H]2C[C@@H](O)CN2C(=O)[C@@H](NC(=O)[C@H]2CC3(C2)C[C@H](N2CCC(c4ccnc(N5CCN6c7cc(-c8ccccc8O)nnc7NC[C@H]6C5)n4)CC2)C3)C(C)(C)C)cc1 (single isomer, unassigned) [I-27]", "SMARCA4 (Homo sapiens, UniProt P51532)", "> 100 nM"],
  ["Cc1ncsc1-c1ccc(CNC(=O)[C@@H]2C[C@@H](O)CN2C(=O)C(c2cc(OC[C@H]3CC[C@@H](N4CCC(c5cnc(N6CCc7[nH]c8nnc(-c9ccccc9O)cc8c7[C@H]6C)nc5)CC4)CC3)no2)C(C)C)cc1 (single isomer, unassigned)", "SMARCA4 (Homo sapiens, UniProt P51532)", "10 to 100 nM"],
  ["C#Cc1ccc(CNC(=O)[C@@H]2C[C@@H](O)CN2C(=O)[C@@H](NC(=O)N2CCO[C@H](CN3CCC(N4CCC(N5CCN6c7cc(-c8ccccc8O)nnc7NC[C@H]6C5)CC4)CC3)C2)C(C)(C)C)cc1", "SMARCA4 (Homo sapiens, UniProt P51532)", "> 100 nM"]
]}

###

targetOfAssay: UniProtKB P51531
Sequence (P51531 whole entry): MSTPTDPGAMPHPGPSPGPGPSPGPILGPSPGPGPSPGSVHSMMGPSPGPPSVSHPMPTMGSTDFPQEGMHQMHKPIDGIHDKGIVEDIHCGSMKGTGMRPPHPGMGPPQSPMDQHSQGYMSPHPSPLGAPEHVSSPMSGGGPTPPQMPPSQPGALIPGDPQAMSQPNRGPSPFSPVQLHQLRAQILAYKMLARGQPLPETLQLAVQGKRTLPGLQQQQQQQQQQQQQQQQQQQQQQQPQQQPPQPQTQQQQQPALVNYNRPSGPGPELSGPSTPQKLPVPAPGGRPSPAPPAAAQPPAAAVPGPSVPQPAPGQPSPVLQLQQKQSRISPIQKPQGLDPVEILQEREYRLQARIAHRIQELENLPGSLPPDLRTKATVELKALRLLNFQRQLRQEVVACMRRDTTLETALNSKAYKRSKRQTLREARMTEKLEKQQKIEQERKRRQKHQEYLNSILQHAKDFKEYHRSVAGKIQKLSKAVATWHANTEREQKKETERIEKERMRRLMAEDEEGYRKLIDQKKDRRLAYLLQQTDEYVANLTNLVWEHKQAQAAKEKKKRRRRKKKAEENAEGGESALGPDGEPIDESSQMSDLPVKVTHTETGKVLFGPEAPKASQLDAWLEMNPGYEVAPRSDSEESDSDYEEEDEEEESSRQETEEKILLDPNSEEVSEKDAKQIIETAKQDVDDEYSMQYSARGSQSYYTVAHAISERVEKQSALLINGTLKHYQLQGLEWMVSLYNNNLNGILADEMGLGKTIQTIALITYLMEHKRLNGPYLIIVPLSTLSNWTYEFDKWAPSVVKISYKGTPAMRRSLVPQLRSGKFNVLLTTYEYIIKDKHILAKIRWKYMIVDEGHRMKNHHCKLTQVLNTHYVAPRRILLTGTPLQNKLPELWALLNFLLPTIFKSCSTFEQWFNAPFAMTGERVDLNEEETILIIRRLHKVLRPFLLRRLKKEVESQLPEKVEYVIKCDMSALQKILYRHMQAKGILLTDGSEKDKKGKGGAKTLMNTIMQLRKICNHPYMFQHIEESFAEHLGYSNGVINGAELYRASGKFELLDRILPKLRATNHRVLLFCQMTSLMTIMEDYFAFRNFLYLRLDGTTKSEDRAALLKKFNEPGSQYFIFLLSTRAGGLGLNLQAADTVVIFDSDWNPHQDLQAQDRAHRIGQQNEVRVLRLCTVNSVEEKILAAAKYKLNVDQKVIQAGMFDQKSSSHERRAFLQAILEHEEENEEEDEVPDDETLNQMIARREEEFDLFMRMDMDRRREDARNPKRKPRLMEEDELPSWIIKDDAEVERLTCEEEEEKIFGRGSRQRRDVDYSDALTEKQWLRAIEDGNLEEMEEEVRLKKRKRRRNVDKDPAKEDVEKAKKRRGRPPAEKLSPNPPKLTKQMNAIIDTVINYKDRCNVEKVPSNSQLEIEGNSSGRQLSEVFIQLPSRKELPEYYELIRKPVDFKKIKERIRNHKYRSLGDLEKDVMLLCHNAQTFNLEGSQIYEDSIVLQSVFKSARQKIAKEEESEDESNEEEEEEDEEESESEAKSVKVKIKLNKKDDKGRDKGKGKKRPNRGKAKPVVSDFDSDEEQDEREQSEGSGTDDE
assay: SMARCA2 Western blot degradation in MV4-11 cells
Assay type: cell-based
Set-up: SMARCA2/SMARCA4 protein degradation selectivity in MV4-11 cells; endogenous in cells; host or cells: MV4-11
experimentalSetup: SMARCA2/4 selectivity, MV4-11 cells
readoutName: Selectivity in MV411

{"columns": ["molecule", "readoutName", "recordedValue"],
 "data": [
  ["C#Cc1ccc(CNC(=O)[C@@H]2C[C@@H](O)CN2C(=O)[C@@H](OC(=O)N2CC3(CC(N4CCC(c5cnc(N6CCc7[nH]c8nnc(-c9ccccc9O)cc8c7[C@H]6C)nc5)CC4)C3)C2)C(C)(C)C)cc1", "Selectivity in MV411", "C (C (10-100 fold))"],
  ["C#Cc1cc(O)c(CNC(=O)[C@@H]2C[C@@H](O)CN2C(=O)[C@@H](NC(=O)N2CC3(CC(N4CCC(c5cnc(N6CCc7[nH]c8nnc(-c9ccccc9O)cc8c7[C@H]6C)nc5)CC4)C3)C2)C(C)(C)C)c(Cl)c1", "Selectivity in MV411", "D (D (<10 fold))"],
  ["C#Cc1cnc(CNC(=O)[C@@H]2C[C@@H](O)CN2C(=O)[C@@H](NC(=O)[C@H]2CCC3(CC2)C[C@H](N2CCC(c4cnc(N5CCN6c7cc(-c8ccccc8O)nnc7NC[C@H]6C5)nc4)CC2)C3)C(C)(C)C)c(OC)c1 (single isomer, unassigned) [I-286]", "Selectivity in MV411", "D (D (<10 fold))"],
  ["C#Cc1ccc(CNC(=O)[C@@H]2C[C@@H](O)CN2C(=O)[C@@H](NC(=O)[C@H]2CCC3(CC2)C[C@H](N2CCC(c4ccc(N5CCN6c7cc(-c8ccccc8O)nnc7NC[C@H]6C5)nc4)CC2)C3)C(C)(C)C)cc1 (single isomer, unassigned) [I-156]", "Selectivity in MV411", "C (C (10-100 fold))"]
]}
